Where do the numbers come from? From ChEMBL document CHEMBL1135829.

# Measurement Target: Estrogen receptor (Homo sapiens)
# Sequence (P03372 whole entry): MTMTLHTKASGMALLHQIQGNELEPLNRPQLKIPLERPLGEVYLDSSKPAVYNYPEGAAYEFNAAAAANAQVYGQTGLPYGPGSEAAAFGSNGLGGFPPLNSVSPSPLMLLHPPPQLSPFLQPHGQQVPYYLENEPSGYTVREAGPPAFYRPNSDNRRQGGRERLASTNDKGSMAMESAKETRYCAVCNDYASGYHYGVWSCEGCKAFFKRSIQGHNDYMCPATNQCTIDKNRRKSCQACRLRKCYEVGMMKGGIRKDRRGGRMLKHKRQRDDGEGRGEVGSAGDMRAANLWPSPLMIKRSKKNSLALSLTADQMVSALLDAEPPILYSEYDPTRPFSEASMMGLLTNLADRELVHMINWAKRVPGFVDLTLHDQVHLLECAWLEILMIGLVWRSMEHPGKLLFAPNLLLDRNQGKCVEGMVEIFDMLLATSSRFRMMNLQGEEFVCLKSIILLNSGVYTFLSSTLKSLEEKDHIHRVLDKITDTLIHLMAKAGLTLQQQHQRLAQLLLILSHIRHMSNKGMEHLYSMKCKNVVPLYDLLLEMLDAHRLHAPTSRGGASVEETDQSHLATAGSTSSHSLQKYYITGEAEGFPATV
# Method Notes: Antiestrogenic activity in MCF-7-2a cells as concentration required to reduce estradiol effect by 50%
pIC50: −log10 of the molar value.
In this section, each of the compounds is paired with its reported pIC50.
Property: pIC50

In [3]: df
Out[3]:
                           molecular_string  obs_value
0    CC(=C(c1ccc(O)cc1)c1ccc(O)cc1)c1ccccc1       7.52
1    CC/C(=C(\c1ccccc1)c1ccc(O)cc1)c1ccccc1       8.15
2       Oc1ccc(C(=Cc2ccccc2)c2ccc(O)cc2)cc1       6.82
3  Oc1ccc(C(=C(CC(F)(F)F)c2ccccc2)c2ccc(O)cc2)cc1       8.05
4   CCC(=C(c1ccc(O)cc1)c1ccc(O)cc1)c1ccccc1       7.82
5  CCCC(=C(c1ccc(O)cc1)c1ccc(O)cc1)c1ccccc1       7.30
6  CCCCC(=C(c1ccc(O)cc1)c1ccc(O)cc1)c1ccccc1       6.30
